test system: Scenedesmus acutus; test: Growth inhibition of Scenedesmus acutus assessed as packed cell volume per ml of algal culture volume after 16 hr (reference value: 3.8 ul pcv/ml); assay type: functional
reported_metric: Activity (uL/ml)
The figure you give is taken to be in uL/ml; do not add the unit.

[[record]]
test_smiles = "Fc1cc(Cl)c(OC(F)F)cc1-n1nc2c(c1Cl)CCCC2"
unit_info = "uL/ml"
number = 1.5

[[record]]
test_smiles = "Cc1cc(C)n(-c2ccc(Cl)cc2F)n1"
unit_info = "uL/ml"
number = 4.1

[[record]]
test_smiles = "C#CCOc1cc(-n2nc(C)c(Cl)c2C)c(Cl)cc1F"
unit_info = "uL/ml"
number = 3.1


Please fill in: Activity reported for `N#Cc1cnn(-c2c(Cl)cc(C(F)(F)F)cc2Cl)c1N` = 2

Please fill in: Activity reported for `C/C=C/COc1cc(-n2nc(C)c(C)c2C)c(F)cc1Cl` = 3.5

Please fill in: Activity reported for `CCOc1cc(Oc2ccc(C(F)(F)F)cc2Cl)ccc1[N+](=O)[O-]` = 1.4

---

test system: Scenedesmus acutus; assay: Growth inhibition of Scenedesmus acutus assessed as packed cell volume per ml of algal culture volume after 16 hr (reference value: 3.8 ul pcv/ml); format: functional
Listing: Activity of selected compounds
The figure you give is taken to be in uL/ml; do not add the unit.

[[record]]
compound = "O=C1C2=C(CCCC2)C(=O)N1c1ccc(Cl)cc1 [CHLOROPHTHALIUM]"
number = 2.5

[[record]]
compound = "COc1cc(-n2nc(C)c(C)c2C)c(F)cc1Cl"
number = 4.1

[[record]]
compound = "C#CCOc1cc(-n2nc(C)c([N+](=O)[O-])c2C)c(F)cc1Cl"
number = 2.5

[[record]]
compound = "C#CCOc1cc(N2C(=O)C3=C(CCCC3)C2=O)c(F)cc1Cl"
number = 2.4


Item `Cc1nn(-c2cc(OC(C)C)c(Cl)cc2F)c(C)c1[N+](=O)[O-]` ; assay system Scenedesmus acutus; Activity reported as 3.5
